Target: T1, cynomolgus DKK1 (cynomolgus monkey (Macaca fascicularis), UniProt A0A7N9IE82 32-266)
T1 construct: also called cyno DKK1; monkey DKK1 (Novartis)
T1 sequence: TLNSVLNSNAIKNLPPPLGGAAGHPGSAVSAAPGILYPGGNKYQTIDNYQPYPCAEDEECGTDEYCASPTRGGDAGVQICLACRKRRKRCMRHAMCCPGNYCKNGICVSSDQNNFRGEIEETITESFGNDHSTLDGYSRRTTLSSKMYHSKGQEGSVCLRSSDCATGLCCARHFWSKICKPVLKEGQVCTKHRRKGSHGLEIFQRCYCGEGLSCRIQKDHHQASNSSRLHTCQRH
Assay: solution equilibrium titration (SET), ECL (BioVeris), Fab
Description: Electrochemiluminescence (ECL) based affinity determination in solution and data evaluation are basically performed as described by Haenel et al., 2005. […] Subsequently, the concentration of unbound Fab is quantified by ECL detection using the M-SERIES® 384 analyzer (BioVeris Europe). Affinities are calculated according to Haenel et al., 2005 Anal Biochem 339.1:182-184.
OBSERVED_PROPERTY: pKd
Hey, just a heads up that pKd is the negative log base 10 of the concentration in molar.

# example entries with known answers
MOR04910 (Fab, V domains shown, also called anti-DKK1 FAb MOR04910) VH: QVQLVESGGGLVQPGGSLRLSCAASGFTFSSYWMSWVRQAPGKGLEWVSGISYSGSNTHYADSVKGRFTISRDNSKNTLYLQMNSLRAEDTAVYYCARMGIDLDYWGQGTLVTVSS VL: DIALTQPASVSGSPGQSITISCTGTSSDVGGFNYVSWYQQHPGKAPKLMIHDGSNRPSGVSNRFSGSKSGNTASLTISGLQAEDEADYYCQSWDVSPITAVFGGGTKLTVLG | 10.43
MOR04948 (Fab, V domains shown) VH: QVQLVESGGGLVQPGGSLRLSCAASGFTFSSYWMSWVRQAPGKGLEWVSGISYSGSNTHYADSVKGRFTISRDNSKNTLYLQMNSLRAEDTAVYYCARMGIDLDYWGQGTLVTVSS VL: DIALTQPASVSGSPGQSITISCTGTSSDVGGFNYVSWYQQHPGKAPKLMIHDGSNRPSGVSNRFSGSKSGNTASLTISGLQAEDEADYYCQTWDSLSFFVFGGGTKLTVLG | 10.17
MOR04945 (Fab, V domains shown) VH: QVQLVESGGGLVQPGGSLRLSCAASGFTFSSYWMSWVRQAPGKGLEWVSVISSDSSSTYYADSVKGRFTISRDNSKNTLYLQMNSLRAEDTAVYYCARHGIDFDHWGQGTLVTVSS VL: DIALTQPASVSGSPGQSITISCTGTSSDLGGYNYVSWYQQHPGKAPKLMIYDVNNRPSGVSNRFSGSKSGNTASLTISGLQAEDEADYYCQTYDQIKLSAVFGGGTKLTVLG | 10.10

Data request, read-out pKd, for MOR04946 (Fab, V domains shown) VH: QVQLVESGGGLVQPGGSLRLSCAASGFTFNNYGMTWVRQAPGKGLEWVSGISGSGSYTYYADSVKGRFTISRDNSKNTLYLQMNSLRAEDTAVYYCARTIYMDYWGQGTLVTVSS VL: DIVLTQSPATLSLSPGERATLSCRASQNLFSPYLAWYQQKPGQAPRLLIYGASNRATGVPARFSGSGSGTDFTLTISSLEPEDFAVYYCQQYLTLPLTFGQGTKVEIKR
10.44
